Each item that follows carries a reported EC50.
Test: EC50 (no method described)

>>> value_observed("Cn1cc(NS(=O)(=O)C2CC2)c(Nc2ccc(Br)cc2F)c(Cl)c1=O")
"100 to 500 nM"
>>> value_observed("Cn1cc(NS(=O)(=O)C2(CC(O)CO)CC2)c(Nc2ccc(I)cc2F)c(F)c1=O (stereo not shown)")
"100 to 500 nM"
>>> value_observed("Cn1cc(NS(=O)(=O)C2CC2)c(Nc2ccc(I)cc2F)cc1=O")
"< 100 nM"
>>> value_observed("Cn1cc(NS(=O)(=O)C2CC2)c(Nc2ccc(I)cc2F)c(F)c1=O")
"< 100 nM"

Sample `CN(C)S(=O)(=O)Nc1cn(C)c(=O)cc1Nc1ccc(I)cc1F` ; EC50 observed: 500 to 1000 nM

GET /value?item= Cn1cc(NS(=O)(=O)C2(CC(O)CO)CC2)c(Nc2ccc(I)cc2F)cc1=O (stereo not shown) &field=EC50 returns 500 to 1000 nM

The reported value for `Cn1cc(NS(=O)(=O)C2(CC(=O)CO)CC2)c(Nc2ccc(I)cc2F)c(F)c1=O` in terms of EC50 is < 100 nM
